Could you please report measured Activity for the items listed next?
- System: Rattus norvegicus
- Test summary: Effect on in vivo accumulation of DOPA was measured in rat corpus striatum at 50(Micromol/kg) dose
- Assay type: functional
Answer in ng/g, number only, no unit symbol.

Identify Activity associated with the compound CCCN(CCC)[C@H]1Cc2c(O)cccc2C[C@H]1C (racemic) 1059

Identify Activity associated with the compound CCCN(CCC)[C@H]1Cc2c(O)cccc2C[C@@H]1C (racemic; form 2) 792

Identify Activity associated with the compound CCCN(CCC)[C@H]1Cc2c(O)cccc2C[C@H]1C (stereo in doubt; (+)-15) 1157

Identify Activity associated with the compound CCCN(CCC)[C@H]1Cc2c(O)cccc2C[C@H]1C (stereo in doubt; (-)-15) 1001
